Source: ChEMBL document CHEMBL1275572

Tested on: Pseudomonas putida
Assay: Antimicrobial activity against Pseudomonas putida expressing beta-lactamase KPC-2 and SHV-12 obtained from criticall ill liver transplant recipient by broth microdilution method
Type: functional
Assignment: determine reported MIC for the given molecules.

Consider the worked cases shown below.
{"molecule": "C[C@@H](O)[C@H]1C(=O)N2C(C(=O)O)=C(S[C@@H]3CN[C@H](C(=O)Nc4cccc(C(=O)O)c4)C3)[C@H](C)[C@H]12", "target-under-test": "Pseudomonas putida", "endpoint-label": "MIC", "obs-value": "> 8 µg/mL"}
{"molecule": "CO/N=C(\\C(=O)N[C@@H]1C(=O)N2C(C(=O)[O-])=C(C[N+]3(C)CCCC3)CS[C@H]12)c1csc(N)n1", "target-under-test": "Pseudomonas putida", "endpoint-label": "MIC", "obs-value": "> 32 µg/mL"}
{"molecule": "NCC[C@H](O)C(=O)N[C@@H]1C[C@H](N)[C@@H](O[C@H]2O[C@H](CN)[C@@H](O)[C@H](O)[C@H]2O)[C@H](O)[C@H]1O[C@H]1O[C@H](CO)[C@@H](O)[C@H](N)[C@H]1O [AMIKACIN]", "target-under-test": "Pseudomonas putida", "endpoint-label": "MIC", "obs-value": "1 µg/mL"}
{"molecule": "C[C@H]1COc2c(N3CCN(C)CC3)c(F)cc3c(=O)c(C(=O)O)cn1c23.C[C@H]1COc2c(N3CCN(C)CC3)c(F)cc3c(=O)c(C(=O)O)cn1c23.O [LEVOFLOXACIN]", "target-under-test": "Pseudomonas putida", "endpoint-label": "MIC", "obs-value": "> 16 µg/mL"}
{"molecule": "C[C@@H](O)[C@H]1C(=O)N2C(C(=O)O)=C(SCCNC=N)C[C@H]12 [IMIPENEM ANHYDROUS]", "target-under-test": "Pseudomonas putida", "endpoint-label": "MIC", "obs-value": "> 4 µg/mL"}

// switching to the query molecule
In: Look up and report MIC, with Pseudomonas putida as system, for CO[C@@]1(NC(=O)Cc2cccs2)C(=O)N2C(C(=O)O)=C(COC(N)=O)CS[C@@H]21 [CEFOXITIN]
Out: > 32 µg/mL

----------
System: Enterobacter cloacae
Assay: Antimicrobial activity against Enterobacter cloacae expressing beta-lactamase KPC-2 and SHV-12 obtained from criticall ill liver transplant recipient by broth microdilution method
Assay type: functional
Assignment: determine reported MIC for the given compounds.

Consider the worked cases shown below.
{"compound": "C[C@H]1COc2c(N3CCN(C)CC3)c(F)cc3c(=O)c(C(=O)O)cn1c23.C[C@H]1COc2c(N3CCN(C)CC3)c(F)cc3c(=O)c(C(=O)O)cn1c23.O [LEVOFLOXACIN]", "obs-value": "2 µg/mL"}
{"compound": "C[C@@H](O)[C@H]1C(=O)N2C(C(=O)O)=C(S[C@@H]3CN[C@H](C(=O)Nc4cccc(C(=O)O)c4)C3)[C@H](C)[C@H]12", "obs-value": "> 8 µg/mL"}
{"compound": "NCC[C@H](O)C(=O)N[C@@H]1C[C@H](N)[C@@H](O[C@H]2O[C@H](CN)[C@@H](O)[C@H](O)[C@H]2O)[C@H](O)[C@H]1O[C@H]1O[C@H](CO)[C@@H](O)[C@H](N)[C@H]1O [AMIKACIN]", "obs-value": "16 µg/mL"}
{"compound": "CC(C)(O/N=C(\\C(=O)N[C@@H]1C(=O)N2C(C(=O)[O-])=C(C[n+]3ccccc3)CS[C@H]12)c1csc(N)n1)C(=O)O [CEFTAZIDIME]", "obs-value": "> 32 µg/mL"}
{"compound": "NC[C@H]1O[C@H](O[C@H]2[C@H](O)[C@@H](O[C@H]3O[C@H](CO)[C@@H](O)[C@H](N)[C@H]3O)[C@H](N)C[C@@H]2N)[C@H](N)C[C@@H]1O [TOBRAMYCIN]", "obs-value": "> 8 µg/mL"}

In: Return MIC (reported value) for this compound: C[C@@H](O)[C@H]1C(=O)N2C(C(=O)O)=C(S[C@@H]3CN[C@H](C(=O)N(C)C)C3)[C@H](C)[C@H]12 [MEROPENEM]
Out: > 4 µg/mL
